# assayedTarget: D(1A) dopamine receptor (Rattus norvegicus, UniProt P18901)
# Sequence (P18901 whole entry): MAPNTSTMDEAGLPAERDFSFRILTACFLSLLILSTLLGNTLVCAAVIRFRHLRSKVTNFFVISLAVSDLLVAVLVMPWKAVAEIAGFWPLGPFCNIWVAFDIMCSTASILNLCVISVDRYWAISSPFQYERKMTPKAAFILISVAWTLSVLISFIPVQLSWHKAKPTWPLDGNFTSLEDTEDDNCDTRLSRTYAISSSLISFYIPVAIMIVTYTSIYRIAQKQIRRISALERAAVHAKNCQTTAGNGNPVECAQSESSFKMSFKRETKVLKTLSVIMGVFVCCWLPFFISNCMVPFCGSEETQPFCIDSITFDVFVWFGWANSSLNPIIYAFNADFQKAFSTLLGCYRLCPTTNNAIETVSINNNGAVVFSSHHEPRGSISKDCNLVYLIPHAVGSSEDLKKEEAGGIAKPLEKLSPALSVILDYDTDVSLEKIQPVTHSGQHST
# protocolSummary: Displacement of [3H]SCH23390 from dopamine D1 receptor in CRL:CD(SD)BR-COBS rat brain striatum
Threshold-based label: Ki under 2000 nM gives MET, Ki not under 2000 nM gives NOT MET.

Would you kindly verify if Ki of c1ccc(N2CCN(CCCSc3nc4ccccc4o3)CC2)nc1 is strictly less than 2000 nM?
NOT MET

Check if Ki falls below 2000 nM for c1ccc(N2CCN(CCCSc3nc4ccccc4s3)CC2)nc1 .
NOT MET

Does this compound meet the criterion Ki < 2000 nM? COc1ccccc1N1CCN(CCCCSc2nc3ccccc3o2)CC1
MET

Could you please tell me whether Ki recorded for COc1ccccc1N1CCN(CCCCCCSc2nc3ccccc3o2)CC1 is less than 2000 nM?
MET

Is the reported Ki for COc1ccccc1N1CCN(CCCSc2nc3ccccc3s2)CC1 strictly below 2000 nM?
MET

Strictly below 2000 nM: is that where Ki of c1cnc(N2CCN(CCCSc3nc4ccccc4s3)CC2)nc1 sits?
NOT MET

----------
Record set of pKi for target or system UniProt:P14842.
Sequence (P14842 whole entry): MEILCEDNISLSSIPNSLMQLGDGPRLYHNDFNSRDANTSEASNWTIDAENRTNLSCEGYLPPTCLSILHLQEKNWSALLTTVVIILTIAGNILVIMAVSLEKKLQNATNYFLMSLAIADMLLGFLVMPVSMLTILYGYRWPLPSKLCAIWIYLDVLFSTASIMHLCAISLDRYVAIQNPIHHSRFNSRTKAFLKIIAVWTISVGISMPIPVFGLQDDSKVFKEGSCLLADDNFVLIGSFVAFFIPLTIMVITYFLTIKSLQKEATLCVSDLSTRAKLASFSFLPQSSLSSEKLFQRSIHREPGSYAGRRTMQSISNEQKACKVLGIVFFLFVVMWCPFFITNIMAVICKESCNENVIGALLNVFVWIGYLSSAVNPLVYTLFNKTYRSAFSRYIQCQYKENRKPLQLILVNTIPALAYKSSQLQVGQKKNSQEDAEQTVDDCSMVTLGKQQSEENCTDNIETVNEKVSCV
The meaning of pKi here: minus log10 of the concentration in molar units.

// known answers, use as guide
                  compoundstructurestring  measuredendpoint  quantitativereadout
0   c1ccc(N2CCN(CCCSc3nc4ccccc4s3)CC2)nc1               pKi                 7.10
1  COc1ccccc1N1CCN(CCCCSc2nc3ccccc3o2)CC1               pKi                 6.53
2  COc1ccccc1N1CCN(CCCCSc2nc3ccccc3s2)CC1               pKi                 6.97
3   COc1ccccc1N1CCN(CCCSc2nc3ccccc3s2)CC1               pKi                 7.02

Entry c1cnc(N2CCN(CCCSc3nc4ccccc4s3)CC2)nc1 : reported pKi = ?
6.74

----------
# assayedTarget: 5-hydroxytryptamine receptor 1A (Rattus norvegicus, UniProt P19327)
# protocolSummary: Antagonist activity at 5HT1A receptor in CRL:CD(SD)BR-COBS rat hippocampus assessed as inhibition of 5-hydroxytryptamine-induced increase in [35S]GTPgammaS binding
# Assay type: functional, tissue-based
Recorded Ki by entry
Write it as a number; the unit nM goes unstated.

As a guide, the following entries are already answered.
                    compoundstructurestring  quantitativereadout
0  COc1ccccc1N1CCN(CCCCCCSc2nc3ccccc3o2)CC1                  1.3
1    COc1ccccc1N1CCN(CCCCSc2nc3ccccc3o2)CC1                  6.6

Using the record for CCc1cc2c(=O)n(N)c(SCCCN3CCN(c4ccccc4OC)CC3)nc2s1 , report its Ki.
7.4

Need Ki, item COc1ccccc1N1CCN(CCCSc2nc3ccccc3s2)CC1
1.7

----------
Below: a set of entries, each annotated with reported Ki.
# assayedTarget: UniProt P19327
# protocolSummary: Displacement of [3H]8-OH-DPAT from 5HT1A receptor in CRL:CD(SD)BR-COBS rat hippocampus
# Assay type: tissue-based
Please respond with the number in nM and leave the unit unwritten.

Known Ki results, listed for orientation:
                    compoundstructurestring  measuredendpoint  quantitativereadout
0     c1ccc(N2CCN(CCCSc3nc4ccccc4o3)CC2)nc1                Ki                  1.6
1  O=[N+]([O-])c1ccccc1N1CCN(CCCSc2nc3ccccc3[nH]2)CC1                Ki                 16.6
2    COc1ccccc1N1CCN(CCCCSc2nc3ccccc3s2)CC1                Ki                 0.27
3  O=[N+]([O-])c1ccccc1N1CCN(CCCSc2nc3ccccc3o2)CC1                Ki                 14.1
4      COc1ccccc1N1CCN(CCSc2nc3ccccc3s2)CC1                Ki                 31.2

Query: Ki; subject: COc1ccccc1N1CCN(CCCSc2nc3ccccc3o2)CC1
0.55

Entry under review: O=[N+]([O-])c1ccccc1N1CCN(CCSc2nc3ccccc3s2)CC1 . Reported Ki?
1700

Find the recorded Ki belonging to COc1ccccc1N1CCN(CCCSc2nc3cc(Cl)ccc3o2)CC1 and report it.
0.88

Any idea what its Ki is? The molecule is COc1ccccc1N1CCN(CCCSc2nc3cc(Cl)ccc3s2)CC1
1

----------
# assayedTarget: 5-hydroxytryptamine receptor 1A (Rattus norvegicus)
# Sequence (P19327 whole entry): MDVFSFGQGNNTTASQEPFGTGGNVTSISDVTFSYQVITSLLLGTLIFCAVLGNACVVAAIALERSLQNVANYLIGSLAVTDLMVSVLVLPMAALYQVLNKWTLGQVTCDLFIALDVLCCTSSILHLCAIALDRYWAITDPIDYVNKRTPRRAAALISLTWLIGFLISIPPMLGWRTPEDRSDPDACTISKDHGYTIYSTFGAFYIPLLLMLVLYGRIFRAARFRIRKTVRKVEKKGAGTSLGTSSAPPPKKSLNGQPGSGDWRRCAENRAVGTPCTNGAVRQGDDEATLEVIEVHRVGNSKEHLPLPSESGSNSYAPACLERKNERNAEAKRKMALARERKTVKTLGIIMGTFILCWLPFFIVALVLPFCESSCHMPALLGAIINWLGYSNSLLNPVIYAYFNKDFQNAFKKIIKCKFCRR
# protocolSummary: Agonist activity at 5HT1A receptor in CRL:CD(SD)BR-COBS rat hippocampus assessed as increase in [35S]GTPgammaS binding
measuredEndpoint: EC50 (nM)
Give a bare numeral; the unit nM is implied.

>>> print(df.to_string())
                                molecule  measuredendpoint  quantitativereadout
0  c1ccc(N2CCN(CCCSc3nc4ccccc4s3)CC2)nc1              EC50                  204

I'd like to know its EC50. The molecule in question is CCC1=CC2C(=O)N(N)C(SCCCN3CCN(c4ncccn4)CC3)=NC2S1 (configuration not stated)
1210

----------
# assayedTarget: UniProt:P61169
# Sequence (P61169 whole entry): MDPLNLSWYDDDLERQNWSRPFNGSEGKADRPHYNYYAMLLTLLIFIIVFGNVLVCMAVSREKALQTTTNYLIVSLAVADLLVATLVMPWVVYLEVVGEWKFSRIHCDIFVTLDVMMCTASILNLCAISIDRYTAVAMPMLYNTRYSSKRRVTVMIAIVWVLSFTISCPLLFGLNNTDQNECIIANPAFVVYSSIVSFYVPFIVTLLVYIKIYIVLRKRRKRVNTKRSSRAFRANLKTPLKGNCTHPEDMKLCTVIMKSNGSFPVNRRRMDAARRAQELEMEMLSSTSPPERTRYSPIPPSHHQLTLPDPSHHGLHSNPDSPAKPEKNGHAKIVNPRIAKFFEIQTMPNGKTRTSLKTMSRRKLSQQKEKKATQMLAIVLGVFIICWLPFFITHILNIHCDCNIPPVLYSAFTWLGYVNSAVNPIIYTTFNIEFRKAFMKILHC
# protocolSummary: Displacement of [3H]spiperone from dopamine D2 receptor in CRL:CD(SD)BR-COBS rat brain striatum
The threshold is 60 nM. Values of Ki beneath it are tagged True; values meeting or exceeding it are tagged False.

Worked examples follow.
In [3]: df
Out[3]:
                    compoundstructurestring  labelclass
0     COc1ccccc1N1CCN(CCCSc2nc3ccccc3s2)CC1        True
1     c1ccc(N2CCN(CCCSc3nc4ccccc4o3)CC2)nc1       False
2  COc1ccccc1N1CCN(CCCCCCSc2nc3ccccc3o2)CC1        True
3     c1ccc(N2CCN(CCCSc3nc4ccccc4s3)CC2)nc1       False
4     c1cnc(N2CCN(CCCSc3nc4ccccc4s3)CC2)nc1       False

Below: the item to evaluate.
Problem: For the molecule COc1ccccc1N1CCN(CCCCSc2nc3ccccc3o2)CC1 , is Ki under 60 nM?
True

----------
# protocolSummary: Displacement of [3H]prazosin from adrenergic receptor alpha1 in CRL:CD(SD)BR-COBS rat brain cortex
measuredEndpoint: Ki (nM)
Report the figure in nM without appending any unit label.

Below are worked cases with known answers.
In [3]: df
Out[3]:
                    compoundstructurestring  measuredendpoint  quantitativereadout
0  O=[N+]([O-])c1ccccc1N1CCN(CCSc2nc3ccccc3[nH]2)CC1                Ki                  457
1  COc1ccccc1N1CCN(CCCSc2nc3cc(Cl)ccc3o2)CC1                Ki                 46.7
2    COc1ccccc1N1CCN(CCCCSc2nc3ccccc3s2)CC1                Ki                 16.6
3  O=[N+]([O-])c1ccccc1N1CCN(CCCSc2nc3ccccc3s2)CC1                Ki                  249
4   COc1ccccc1N1CCN(CCSc2nc3ccccc3[nH]2)CC1                Ki                  240
5  COc1ccccc1N1CCN(CCCSc2nc3ccccc3[nH]2)CC1                Ki                 25.9
6     COc1ccccc1N1CCN(CCCSc2nc3ccccc3o2)CC1                Ki                 21.5
7     c1ccc(N2CCN(CCCSc3nc4ccccc4s3)CC2)nc1                Ki                 77.7

Request the reported Ki associated with COc1ccccc1N1CCN(CCCCCCSc2nc3ccccc3s2)CC1
46
